Items are presented alongside their recorded apparent KD of MS2 coat protein.
- System: MS2 coat protein
- run-description: apparent KD of MS2 coat protein; designed switch direction (-1 OFF switch, 1 ON switch): -1; higher = weaker reporter binding
- stated-conditions: input ligand: none
Kindly report the value followed by its unit.

Answered cases to consult:
residues	property	measured
GGUUUGGGAGGAUAUGGUUUGAAUAACAUGAGGAUCACCCAUGUAAAUAGAUCUUCCGGGCCAGAAGGCUCGGGCC [-23.9, -21.52 kcal, A 26%] (Eterna round: R97, puzzle: Exclusion 5)	apparent KD of MS2 coat protein	34.6 nM
GCCGGUCAUGUAGGAUAUGGCCGGCGGUGCCGGCCAGAAGGACAUGAGGAUCACCCAUGUGCCGGCCUUUGGCCGGCACCCGGC (Eterna round: R96, puzzle: Exclusion NG 1)	apparent KD of MS2 coat protein	17.2 nM

# next sequence below
stdin: Query the reported apparent KD of MS2 coat protein for MS2 coat protein; item: GCAAAAUAUCAGGAUAUGACUAGCUGCGGCUAGUCAGAAGGGAUAACAUGAGGAUCACCCAUGUGAUAAAGUGU [JR_Ex6_Sub029] (Eterna round: R97, puzzle: Exclusion 6)
stdout: 60.4 nM

###

- System: MS2 coat protein
- run-description: apparent KD of MS2 coat protein; designed switch direction (-1 OFF switch, 1 ON switch): -1; higher = weaker reporter binding
- stated-conditions: input ligand: none
Items are presented alongside their recorded apparent KD of MS2 coat protein.
Answer in nM, number only, no unit symbol.

Answered cases to consult:
residues	units-symbol	apparent KD of MS2 coat protein
GUCAGCUCGUGAGGAUAUAUAUACAUGAGGAUCACCCAUGUAAGAUCAGCACUUCGGUGCAGUAUAUAGAAGGCACGAGCUGAC [ENG2/13-A1] (Eterna round: R96, puzzle: Exclusion NG 2)	nM	29.1
UUCGUGCAGCUUUGCUGUACGCGUACAUGAGGAUCACCCAUGUAGGAUAUGGUACGCUUUGCGUGCUAGAAGGAUAUGUGGAGG [JL EXNG3 1.35] (Eterna round: R96, puzzle: Exclusion NG 3)	nM	45.2
UACACCACAUGAGGAUCAAACAUGAGGAUCACCCAUGUGUAGCAAGCUUUUUGCUCGUCUUAUAAAUAUGUGGUGUA [Electric Eye 7 - Jieux - Sensor, turn-off variant 1] (Eterna round: R97, puzzle: Sensor, turn-off variant 1)	nM	11.9

stdin: Query the reported apparent KD of MS2 coat protein for MS2 coat protein; item: AACGCGUGAGGAUAUUGAGGUCUAAAAUGGUAACAUGACCACGAGAAGGCACAUGAGGAUCACCCAUGUUCCCG [Eternabot (L2) Solution 49] (Eterna round: R97, puzzle: Exclusion 4)
stdout: 17.8

###

- Tested on: MS2 coat protein
- run-description: apparent KD of MS2 coat protein; designed switch direction (-1 OFF switch, 1 ON switch): -1; higher = weaker reporter binding
- stated-conditions: Eterna round: R95; input ligand: microRNA oligo, concentration not stated
Items are presented alongside their recorded apparent KD of MS2 coat protein.
Answer in nM, number only, no unit symbol.

residues	tested-system	units-symbol	measured
CAUUGACAUGAGGAUCACCCAUGUCAGGAUAUGCUUCAUGACACGAAAGUGUCAUGAAGCAGAAGGGACAUGCC [SS1 Omei 1] (puzzle: Exclusion 1)	MS2 coat protein	nM	19.5

# next sequence below
stdin: Query (sequence): GGUUGGCGAGGAUAUACAUGAGGAUCACCCAUGUGAGAGAAUAAAGUGAGAAAGAAAAGUAGAAGGCGCUGACA [Mat - Exclusion 3 - Mod of Salish D51] (puzzle: Exclusion 3) ; field requested: apparent KD of MS2 coat protein
stdout: 46.9

###

- Test system: MS2 coat protein
- run-description: apparent KD of MS2 coat protein; designed switch direction (-1 OFF switch, 1 ON switch): 1; higher = weaker reporter binding
- stated-conditions: Eterna round: R95; input ligand: none
Think of 300 nM as a floor: if apparent KD of MS2 coat protein stands on it or above, it is criterion met; beneath it, criterion not met.

residues	label-value
UGCUAUUGUAUAUUGGUGCAAGCUUUUUGACAUGAGGAUCACCCAUGUACUCGUCUUUAGCGCAGUCCGUAGACUGC (puzzle: Sensor for hsa-mir-208a)	criterion not met
AGAAUACAUGAGGAUCACCCAUGUCAACGUAGUCGAGGAUAUGGGCAGCCGUGAGGCGUACUAGAAGGCGAAGAGA [Mat - Same State 1 - Mod of JL - D6] (puzzle: Same State 1)	criterion not met
AGUCCAGCCUGAGCUGGACAAAAGCAUGUACAUGAGGAUCACCCAUGUCAUGUACAAGCUUUUUGCUCGUCUUAGAA [Mat - hsa-mir-208a - Mod of JL - D26] (puzzle: Sensor for hsa-mir-208a)	criterion met

stdin: Evaluate GGAGCCGGCACCGAGGAUAUUCAUAUUAAAACAUGAGGAUCACCCAUGUAGGUCGAAAGACCUUGGGAGAAGGCGGAUCGGCUCG [Xeonanis - 30] (puzzle: Same State 2) : apparent KD of MS2 coat protein at minimum 300 nM?
stdout: criterion met

stdin: Evaluate AGAGCCGGCACUGAGGAUAUUCAUAUUAAAACAUGAGGAUCACCCAUGUAGGCCAGAAGGCCUUGGGAGAAGGCAGGUCGGCUCG [Mat - Same State 2 - Mod of UCT - D57] (puzzle: Same State 2) : apparent KD of MS2 coat protein at minimum 300 nM?
stdout: criterion met

###

- Test system: MS2 coat protein
- run-description: apparent KD of MS2 coat protein; higher = weaker reporter binding
- stated-conditions: Eterna round: R107; input ligand: theophylline 20 uM
Items are presented alongside their recorded apparent KD of MS2 coat protein.
Answer in nM, number only, no unit symbol.

Answered cases to consult:
residues	apparent KD of MS2 coat protein [nM]
AUUAACAUGAGGAUCACCCAUGUGGCCCACCGAGGACCGGUACGGCCGCCACUCGUCGGAAAGGCUAAAUUUAUGAAGUCCAAAA [theeternabot_sameState_MS2_Trp_A_40]	25.4
UAUGAGCGCACGGCCGCCACUGUCUUCAUCUGUUUGUCUACAUGAGGAUCACCCAUGUUGGUUUACAGGACCGGGUGCAACUAUG [SSTryp B #10]	38.1
AACGUAUACAGAAGGAGCGUGAUUUAUAAUUCUUUAAAAUAUACAUGAGGAUCACCCAUGUCACAGGUAGGUCGCUGUAUUCGUA [JR_ExcArginiB_Sub024]	43.1

stdin: Query (sequence): UCGAUGGUAUCUGAUACCAGUAGCGUGCGUUACAUGAGGAUCACCCAUGUGCCUAUACUUUACCCUUGGCAGCAGUGGAUUCGAU [theeternabot_sameState_MS2_Theo_B_22] ; field requested: apparent KD of MS2 coat protein
stdout: 144

stdin: Query (sequence): AGCAUGUUAGCAGAUACCAGACGUUUUAUGAUCCAUGUAACAUGAGGAUCACCCAUGUAAGUCCCUUGGCAGCUGAAAUAAUGCA [JR_SSTheophyB_Sub011] ; field requested: apparent KD of MS2 coat protein
stdout: 187

stdin: Query (sequence): AGCACAUGAGGAUCACCCAUGUGUGGGUACCGAGGACCGGUACGGCCGCCACUCGCAGGACAUGAGGAUCACCCAUGUGCCGCCG [SSTA DOUBLE!!! :-D #7] ; field requested: apparent KD of MS2 coat protein
stdout: 33.2

stdin: Query (sequence): CCUUACGUUGGGCAGCCAGUUCGAAGUGAUACCAGUCACAAAAGUGACCCUUGGCAGCACCGCACAUGAGGAUCACCCAUGUCUA [SSThA NP+V+V2 #8 Same Structure] ; field requested: apparent KD of MS2 coat protein
stdout: 55.1

stdin: Query (sequence): GUACGAGUUGACUGUGAGACUGGCGUGGAAGGAGCGCACGGAGGUGCAGGUAGGUCGCCACAUGAGGAUCACCCAUGUCGGGCCG [Qutigeveat] ; field requested: apparent KD of MS2 coat protein
stdout: 31.6

stdin: Query (sequence): AGUAACAUGAGGAUCACCCAUGUAUGAGAAGGAGCGUGUUUUAACACAGGUAGGUCGCUCAAUAUUAAUUUAUUAGAUACAUUUA [JR_SSArginiA_Sub006] ; field requested: apparent KD of MS2 coat protein
stdout: 45.1

stdin: Query (sequence): GAUGAACUAUUUGAUACCAGACAACAUGAGGAUCACCCAUGUGCGCGUCGUCCUCUGCCUGUCCCUUGGCAGCAAAUAGUUUAUC [XTheo B #10] ; field requested: apparent KD of MS2 coat protein
stdout: 81.8

stdin: Query (sequence): GGUUGGUGUAGAGAUAUAUUGAUUACUGAAGGAGCGGGAAUAAACCCAGGUAGGUCGCAGAGAUCCACAUGAGGAUCACCCAUGU [!0.O] ; field requested: apparent KD of MS2 coat protein
stdout: 54.6

stdin: Query (sequence): AAUCAUAGGGCGGCCGCCACUAAACAUGAGGAUCACCCAUGUCUCGAGGGCUUGCGUUUGGGAAGUAGGACCGGGCCAAUAGUAA [Tryp B Ex Mod2] ; field requested: apparent KD of MS2 coat protein
stdout: 23
